# System: UACC-257 melanoma
# assay remarks: NCI tumour cell line growth inhibition, 48 h
The following compounds are shown together with reported log10 TGI values.
Note: values are log10 of TGI expressed in µM.

Please review the following examples before continuing.
test smiles	log10 TGI
CCCCCn1c(C)cc(/C=C\c2ccc3cc(C)ccc3[n+]2C)c1C	0.16
O=C(N/N=C/c1cc(Br)cc(Br)c1[O-])c1ccccc1O.O=C(N/N=C/c1cc(Br)cc(Br)c1[O-])c1ccccc1O.[Ni+2]	0.36
COc1cc2c3c(n(C)c(=O)c2cc1OC)-c1cc2c(cc1/C3=C\CCNCCCN)OCO2	1.60
CC(=O)[O-].O=C([CH-]C(=O)c1ccccc1)c1ccccc1.O=C([CH-]C(=O)c1ccccc1)c1ccccc1.[Sm+3]	1.38
Brc1ccc2c(-c3csc(-c4c[nH]c5ccccc45)n3)c[nH]c2c1	1.71
COc1ccc(Nc2nc(N)c(C(=O)c3cccs3)s2)cc1	1.50
Cc1cc(C(=O)c2ccccc2)c(C)c2c1[nH]c1ccc(Cl)cc12	1.90

Now for the compound whose log10 TGI we want.
Q. Quick one: log10 TGI of `CN(Cc1cc(Cl)c(Cl)cc1NC(=O)CN)[C@H]1CCCC[C@@H]1N1CCCC1` ?
A. 1.50
